TARGET ENTITY: Mouse ACVR2A (mouse, UniProt P27038 20-135, limits assumed); also: test concentration or dose not given here
Sequence (P27038 20-135 limits assumed): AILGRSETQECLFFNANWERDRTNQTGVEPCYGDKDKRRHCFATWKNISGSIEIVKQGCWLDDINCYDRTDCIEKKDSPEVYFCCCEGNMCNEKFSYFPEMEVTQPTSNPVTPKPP
ASSAY METHOD TEXT: ELISA
Procedure: The binding of ACVR2A-specific monoclonal antibodies to human ACVR2A, mouse ACVR2A, biotinylated goat anti-human kappa light chain (positive control) and human Fc (negative control) were determined by ELISA.
MEASUREMENT KIND: optical density (OD)
One number for each entry, in OD.

BINDER	MEASUREMENT KIND	UNIT ABBREVIATION	ASSAY VALUE
365_A08 (antibody, V domains shown, VH/VL only) VH: EVQLLESGGGLVQPGGSLRLSCAASGFTFSSYSMNWVRQAPGKGLEWVASINYNGGYKSYADSVKGRFTISRDNSKNTLYLQMNSLRAEDTAVYYCARGATWHDTHLDYWGQGTLVTVSS VL: DIQMTQSPSSLSASVGDRVTITCRASQSIITYLNWYQQKPGKAPKLVIYAATSRASGVPSRFSGSGSGTDFTLTISSLQPEDFATYYCQQSDNTPLTFGGGTKVEIK	optical density	OD	1.59

Then this binder:
Given item 365_H11 (antibody, V domains shown, VH/VL only) VH: EVQLLESGGGLVQPGGSLRLSCAASGFTFSSYSMNWVRQAPGKGLEWVSGINYNSGYTGYADSVKGRFTISRDNSKNTLYLQMNSLRAEDTAVYYCARSANWHDTALDYWGQGTLVTVSS VL: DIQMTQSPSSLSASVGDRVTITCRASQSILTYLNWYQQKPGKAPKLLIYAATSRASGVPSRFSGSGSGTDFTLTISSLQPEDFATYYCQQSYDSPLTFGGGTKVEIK , the value recorded as its optical density is 3.35
